- System: A498 renal
- Run description: NCI-60 one-dose screen, 48 h
- Measurement conditions: 10 µM unless noted
About 83,000 compounds went through this panel and 20% of them were active in at least one assay; those are over-represented in the sample as a whole. The source made the active and inactive calls. Rule for the calls: active = growth percent below 10; inactive = the rest.
Thanks in advance; please answer with one of these: 1 (active), -1 (inactive)

Query: Per the assay record, what outcome was assigned to Nc1nc(SCc2ccccc2Cl)c(-c2ccccc2)c(SCc2ccccc2Cl)n1 ?
Reply: -1

Query: // return assay outcome for C/C(=C\CCc1ccsc1)CC/C=C(\C)CCCN1CCC(CO)CC1
Reply: -1

Query: Recorded test outcome, item COc1ccc2c(c1)C(=O)c1c-2c(=O)n(CCCCCCC(=O)NO)c2ccccc12
Reply: 1

Query: // param item: NNC(=O)C1CC2c3ccccc3C1c1ccccc12 (stereo not given) ; yields the recorded call
Reply: -1

Query: recorded result category for C=C1CC[C@@H]2[C@](C)(COC(C)=O)[C@H](OC(C)=O)CC[C@@]2(C)[C@@H]1CC(Nc1ccc(S(=O)(=O)Nc2cc(C)on2)cc1)C1=CCOC1=O (stereo not given in full) in this test
Reply: -1

Query: How was O=C(/C=C/c1ccc(O)c(O)c1)N1CCN(c2ccc(Cl)cc2)CC1 classified in this test?
Reply: -1

Query: For COc1ccc(OC)c2c1[nH]c(=O)c1c3ccccc3cn21 , which call appears in the assay record?
Reply: -1

Query: What did the test return for O=C(/C=C/c1cc2ccccc2[nH]c1=O)c1ccc(O)cc1 ?
Reply: -1

Query: Lab log entry: COc1cccc2c1O/C(=C\c1c([N+](=O)[O-])ncn1C)C2=O — outcome as called in the assay?
Reply: -1

Query: Please indicate how the test categorized Cn1cc(-c2nc(-c3c[nH]c4ncccc34)cs2)c2cccnc21 .
Reply: -1
